# tgt: Bifunctional epoxide hydrolase 2 (Homo sapiens, UniProt P34913)
# Sequence (P34913 whole entry): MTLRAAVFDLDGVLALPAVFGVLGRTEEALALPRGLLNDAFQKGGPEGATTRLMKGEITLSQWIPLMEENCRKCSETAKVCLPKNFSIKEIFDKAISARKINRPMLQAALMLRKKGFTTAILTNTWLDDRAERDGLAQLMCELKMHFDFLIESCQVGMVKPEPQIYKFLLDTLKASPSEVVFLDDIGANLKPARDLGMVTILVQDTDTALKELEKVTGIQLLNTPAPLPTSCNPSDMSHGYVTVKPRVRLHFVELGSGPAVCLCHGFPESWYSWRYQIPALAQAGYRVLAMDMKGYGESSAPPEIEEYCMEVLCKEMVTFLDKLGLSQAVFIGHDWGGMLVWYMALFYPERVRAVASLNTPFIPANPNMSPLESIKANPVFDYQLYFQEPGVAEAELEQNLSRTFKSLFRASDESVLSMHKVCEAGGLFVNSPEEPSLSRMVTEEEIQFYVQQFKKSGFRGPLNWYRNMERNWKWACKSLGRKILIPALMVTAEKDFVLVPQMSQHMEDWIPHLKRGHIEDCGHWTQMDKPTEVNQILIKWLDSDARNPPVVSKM
# test-description: Inhibition of human recombinant sEH expressed in baculovirus infected insect Sf9 cells using cyano(6-methoxynaphthalen-2-yl)methyl trans-[(3-phenyloxiran-2-yl)methyl] carbonate as substrate preincubated for 30 mins followed by substrate addition measured after 20 to 45 mins by fluorescence assay
pIC50: −log10 of the molar value.
metric: pIC50

[[record]]
structure = "O=C(Nc1ccc(C(F)(F)F)cc1)N1CCOC2(CCN(C(=O)c3cccc(Cl)c3)CC2)C1"
metric = "pIC50"
test_result = 8.92

[[record]]
structure = "O=C(Nc1ccc(C(F)(F)F)cc1)N1CCOC2(CCN(C(=O)c3ccccc3Cl)CC2)C1"
metric = "pIC50"
test_result = 8.85

[[record]]
structure = "O=C(Cc1ccccn1)N1CCC2(CC1)CN(C(=O)Nc1ccc(OC(F)(F)F)cc1)CCO2"
metric = "pIC50"
test_result = 9.15

[[record]]
structure = "Cc1cnc(C(=O)N2CCC3(CC2)CN(C(=O)Nc2ccc(OC(F)(F)F)cc2)CCO3)cn1"
metric = "pIC50"
test_result = 9.05

